assay: Stability in human serum at 37° C., denaturing PAGE and silver stain
No end group written: not given here.
Parameter measured: half-life

Q: Fill in: half-life of WYPWMKKHHR [HXP4(10), WYPWMKKHHR] is ___
Ans: ~4 h
